Task for the reader: assign each of the following compounds its reported Dissociation 2 (change in response units).
molecular target: CD81-LEL (Homo sapiens, UniProt P60033); construct: A recombinant form of the CD81-LEL protein with a GST tag; gift of Dr. Shoshana Levy, Stanford University; test: Surface plasmon resonance binding of ligands to immobilized CD81-LEL; settings: SPR, dissociation interval
Sequence (P60033 113-201 limits assumed): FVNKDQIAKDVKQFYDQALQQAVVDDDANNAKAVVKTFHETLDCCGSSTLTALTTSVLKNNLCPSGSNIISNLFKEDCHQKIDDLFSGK
Field note: include the unit after the figure.

(Q) Give the measured Dissociation 2 (change in response units) of CCC(C)(C)c1ccc(Oc2cccc(C(=O)O)c2)cc1 .
(A) 10.1 response units

(Q) Also need O=C(O)/C(=C\c1ccccc1)c1ccccc1 [Ligand 40614, 2,3-diphenylprop-2-enoate] , thanks.
(A) 43 response units

(Q) Also need O=C(O)Cn1ccc2ccccc21 [Ligand 75866, 2-indol-1-ylacetate] , thanks.
(A) 11.3 response units

(Q) Also need O=C(Cn1ccc(=O)[nH]c1=O)Nc1ccc(C(=O)O)c(O)c1 , thanks.
(A) 7.9 response units

(Q) Also need CC(C)=CCC1=C(OCC(=O)O)C(=O)c2ccccc2C1=O , thanks.
(A) 28.1 response units

(Q) Also need c1cncc(C2CCCC[NH2+]2)c1 (stereo in doubt) [Ligand 87504, 3-[(2S)-piperidin-2-yl]pyridine] , thanks.
(A) 42.6 response units

(Q) Also need Cc1cc(C)c(N)c(C(=O)O)c1 [Ligand 90444, 2-amino-3,5-dimethylbenzoate] , thanks.
(A) 5.6 response units

(Q) Also need O=C(O)c1cc2cc(OCc3ccccc3)ccc2[nH]1 , thanks.
(A) 21.8 response units

----------
biological target: native CD81 on Raji cells (Homo sapiens, UniProt P60033); construct: endogenous in cells; host or cells: Raji cells (human B cell line); test: Antibody neutralizing assay: inhibition of JS-81 anti-CD81 antibody binding on Raji cells (FACS); assay type: cell-based; settings: 100 μM ligand, Raji cells
Sequence (P60033 whole entry): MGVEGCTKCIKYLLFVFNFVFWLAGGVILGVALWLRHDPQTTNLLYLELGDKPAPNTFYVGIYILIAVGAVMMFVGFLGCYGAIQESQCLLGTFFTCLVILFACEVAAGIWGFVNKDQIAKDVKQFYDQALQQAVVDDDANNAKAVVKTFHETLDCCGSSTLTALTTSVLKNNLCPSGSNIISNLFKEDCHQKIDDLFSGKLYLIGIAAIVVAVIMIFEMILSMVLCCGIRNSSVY
Task for the reader: assign each of the following molecules its reported Inhibition of JS-81 Binding (%).
// return numeric value only (unit: %, not printed)

(Q) Give the measured Inhibition of JS-81 Binding (%) of Cc1ccc(-c2cc(C(=O)O)c3ccccc3n2)c(C)c1 .
(A) 4

(Q) Also need NS(=O)(=O)c1ccc(N=Nc2c(O)c(C(=O)O)cc3ccccc23)cc1 , thanks.
(A) 6

(Q) Also need NC(=O)NC(=O)c1nccnc1C(=O)O , thanks.
(A) 12

(Q) Also need O=C(O)c1cc(O)ccc1N=Nc1ccccc1 , thanks.
(A) 0

(Q) Also need CC(=NO)C1CC(CC(=O)O)C1(C)C (stereo not shown) , thanks.
(A) 0

(Q) Also need O=C(O)c1ccc(N2CCCCC2)cc1O , thanks.
(A) 0

(Q) Also need CC(C)(C)c1ccc(NS(=O)(=O)c2ccc(N)cc2)cc1 , thanks.
(A) 12

(Q) Also need CNC1(C(N)=O)CCNCC1 , thanks.
(A) 0

(Q) Also need O=C(O)/C=C/C(=O)Nc1cccc2cccnc12 , thanks.
(A) 54

(Q) Also need NC(N)=N/N=C\c1c(Cl)cccc1Cl , thanks.
(A) 13
